assay: amyloid nucleation score (Sup35N fusion, yeast selection) (log enrichment); library NNK3; higher = more nucleation; inactive = no reads after selection;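 also: zero at mode of non-aggregating sequences after 7 days selection at 30°C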
MEASURED_PROPERTY: amyloid nucleation score

RSYFYTCDSLDALHVHLASH | inactive
EPGSANRSSESNCRVGGTDD | inactive
FNIYCVGPNYATRGAGWVLL | 1.78
GCHFLH | inactive
YLPRSW | inactive
VKCVYERRDGRLWLMILAMG | -0.481
SSELLLHGGTYYKIIYK | 0.586
SWTGCKYIQKYRCRRWCNNF | inactive

Now for a further substance.
Sample LHSFLRCDCSIARF ; amyloid nucleation score observed: inactive

----------
test: amyloid nucleation score (Sup35N fusion, yeast selection) (log enrichment); library NNK1; higher = more nucleation; inactive = no reads after selection
MEASURED_PROPERTY: amyloid nucleation score

WMFIFRLTSTLYYHCC | inactive
KELPSSSTCLKFS | -0.155
CSWFVYSNFFSHQMADMEWL | 0.183
NKKNSSLNHSL | -0.077
SNFVALYDRYNCFSVCIYCG | 5.78
RILAIIVGVSAVSKKSNNEL | 0.913
SSVYVRLVMGF | 1.77
FYVSLRWV | 0.105

amyloid nucleation score reading for TCFEMLPLK : 0.454

Record HLPTKLPSRIRYRCYDFHVI , field amyloid nucleation score: -0.546

----------
experiment: amyloid nucleation score (Sup35N fusion, yeast selection) (log enrichment); library NNK2; higher = more nucleation; inactive = no reads after selection
Label rule, in plain words: amyloid nucleation score of -0.4 and up is 1 (yes), under -0.4 is 0 (no).

Example results:
SHCPVRYMVGIS | 0 (no)
DSGCKFAAPCSVYPLFLFDM | 0 (no)

Could you now look at the following substance, please?
Evaluate SSRRGNDGWRCGPSCGGCTG : amyloid nucleation score at minimum -0.4?
1 (yes)

----------
This section presents substances with their documented amyloid nucleation score values.
experiment: amyloid nucleation score (Sup35N fusion, yeast selection) (log enrichment); library NNK2; higher = more nucleation; inactive = no reads after selection
Lab note: record just the number, no unit beside it.

Some entries whose results are on file:
FMFRQCSQFMMGYYLLNG | 0.313
KATPFAGTLRVYSTVTYCAI | 0.148
IITIYLLAELNSVSVTSTSI | 5.14
IICNLKISSMQDKGVMQAVF | -0.871
MGVSNIDIVSRILNPGAAAS | 1.36
GSMVLPIICNKIAYRSCSTI | -0.828
VYPFSLSVAYVNRLLYYTVQ | 2.14
YYEVCPI | -0.076

Record RLCAVITMVEVIYFSYYVWF , field amyloid nucleation score: 0.013

Entry GPCMMEGLIYREMSAGYTTV , amyloid nucleation score reported as 0.416

What the record says about FPCAMYTEWHVAVTVSICYG : amyloid nucleation score is -0.36

Form: substance = WNGGQWGAWPLCSNVCAMRS ; amyloid nucleation score = 7.7

Record INLRIVSPIDLIVRWEDPTW , field amyloid nucleation score: -1.44

----------
assay: amyloid nucleation score (Sup35N fusion, yeast selection) (log enrichment); library NNK3; higher = more nucleation; inactive = no reads after selection
MEASURED_PROPERTY: amyloid nucleation score

Past entries and their recorded results:
TGVSVECLLLWSWSVVWRCM | inactive
MLCAPVANLYCKHPWDS | inactive
VWPNGSKKYGLSRMTANSLL | inactive
YSDWDIYWIFMFGAGRFFMY | 3.06
VPGSSNVTCLYEGLSSYNTR | inactive

Input FPVSMENFKYA . Output amyloid nucleation score: inactive

# amyloid nucleation score of AACHINNICKSLVL = inactive

Reported amyloid nucleation score ( PFSRTERRFYK ) = -0.463

Record summary for GSGHAVIEVIRRFCSEDDNK : reported amyloid nucleation score = inactive

For this substance ( WIMWNMRAKNLKLLPARARV ), measured amyloid nucleation score is inactive

// amyloid nucleation score lookup, substance = SECYKWRIFCNILNR , result: 2.36

Record DSVRASSLLWMFWCIVEFHG , field amyloid nucleation score: inactive

For this substance ( FVYILGTMMNRRGFDPWIGD ), measured amyloid nucleation score is 0.631

Given item GRLSTAICFCGTMPSRWGFS , the value recorded as its amyloid nucleation score is inactive

# amyloid nucleation score (substance: YKGYSVCIVLPFG ) is -0.542

response.value for GSNQMPDPPHWPRDYNAEKR (field: amyloid nucleation score) = inactive

Note to self: amyloid nucleation score recorded for YSFRCVSTSVNGNRVMAAVS was inactive

RWSVSSQTMLSIINDISFFG yielded amyloid nucleation score of 0.099

# substance LYSGFI ; its amyloid nucleation score = inactive
